tested on: HCT116; experiment: MTT test, antiproliferative activity; format: cell-based, human; details: HCT-116; HCT116 human solid tumor cells, MTT test
valueType: IC50
Express your answer as a number followed by its unit.

Query :: Could you share which IC50 value was measured for N#Cc1c(-c2ccccc2)[n+]([O-])c2ccccc2[n+]1[O-] [Compound 6, reference compound] ?
Result :: 8.4 µM

Query :: Could you share which IC50 value was measured for N#Cc1c(-c2ccccc2)[n+]([O-])c2cc(F)c(F)cc2[n+]1[O-] [Compound 7] ?
Result :: 0.6 µM

* * *

I'd appreciate it if you could supply IC50 values for the items below.
system: K562 leukemic cells; assay: Antiproliferative activity on leukemia cells; format: cell-based; conditions: Homo sapiens
Just the number please, in µM, no unit attached.

Query :: Could you share which IC50 value was measured for COc1cccc2c1C(=O)c1c(O)c3c(c(O)c1C2=O)C[C@@](O)(C(=O)CO)C[C@@H]3O[C@H]1C[C@H](N)[C@H](O)[C@H](C)O1 [Doxorubicin, reference compound] ?
Result :: 0.18

Query :: Could you share which IC50 value was measured for N#Cc1c(-c2ccccc2)[n+]([O-])c2cc(F)c(F)cc2[n+]1[O-] ?
Result :: 0.15

Query :: Could you share which IC50 value was measured for N#Cc1c(-c2ccccc2)[n+]([O-])c2ccccc2[n+]1[O-] [Compound 6, reference compound] ?
Result :: 5.2
